Please respond with reported Activity for every item in the list.
protocolDetails: Oxytocic activity in rat uterus in absence of Mg2+
Type: functional
Positions of bridges follow the written chain, without caps; N, C: chain ends. Non-standard residues stand in square brackets, D forms with d. Residues, ends and D or L forms follow the SMILES beside them. Mpa = O=C(O)CCS
Kindly answer with a numeric value in U/mg, unit omitted.

Inquiry: What value of Activity has been reported for the following molecule? N=C(N)NCCC[C@H](NC(=O)[C@@H]1CCCN1C(=O)[C@@H]1CSSCCC(=O)N[C@@H](Cc2ccc(O)cc2)C(=O)N[C@@H](Cc2ccccc2)C(=O)N[C@@H](CCC(N)=O)C(=O)N[C@@H](CC(N)=O)C(=O)N1)C(=O)NCC(N)=O [DESMOPRESSIN]
Reply text: 54

Inquiry: Any idea what Activity was measured for CC(C)[C@@H]1NC(=O)[C@H](Cc2ccccc2)NC(=O)[C@H](Cc2ccc(O)cc2)NC(=O)[C@@H](O)CSSC[C@@H](C(=O)N2CCC[C@H]2C(=O)N[C@H](CCCN=C(N)N)C(=O)NCC(N)=O)NC(=O)[C@H](CC(N)=O)NC1=O ?
Reply text: 1.1

Inquiry: Item CC(C)[C@@H]1NC(=O)[C@H](Cc2ccccc2)NC(=O)[C@H](Cc2ccc(O)cc2)NC(=O)CCSSC[C@@H](C(=O)N2CCC[C@H]2C(=O)N[C@H](CCCNC(=N)N)C(=O)NCC(N)=O)NC(=O)[C@H](CC(N)=O)NC1=O ([Mpa]YFVNCP[dR]G-NH2; disulfide 1-6) has what recorded Activity?
Reply text: 8

* * *

Organism: Rattus norvegicus
protocolDetails: Vasopressor activity in rat
Format: organism-based
testParameters: in vivo
Could you please report measured Activity for the items listed next?
Please state the figure in U/mg; there is no need to write the unit.

Inquiry: Any idea what Activity was measured for NC(=O)CC[C@@H]1NC(=O)[C@H](Cc2ccccc2)NC(=O)[C@H](Cc2ccc(O)cc2)NC(=O)[C@@H](O)CSSC[C@@H](C(=O)N2CCC[C@H]2C(=O)N[C@@H](CCCN=C(N)N)C(=O)NCC(N)=O)NC(=O)[C@H](CC(N)=O)NC1=O ?
Reply text: 549

Inquiry: Fill in: Activity of NC(=O)CC[C@@H]1NC(=O)[C@H](Cc2ccccc2)NC(=O)[C@H](Cc2ccc(O)cc2)NC(=O)[C@@H](O)CSSC[C@@H](C(=O)N2CCC[C@H]2C(=O)N[C@H](CCCN=C(N)N)C(=O)NCC(N)=O)NC(=O)[C@H](CC(N)=O)NC1=O is ___
Reply text: 0.86

Inquiry: Fill in: Activity of CC(C)[C@@H]1NC(=O)[C@H](Cc2ccccc2)NC(=O)[C@H](Cc2ccc(O)cc2)NC(=O)[C@@H](N)CSSC[C@@H](C(=O)N2CCC[C@H]2C(=O)N[C@H](CCCN=C(N)N)C(=O)NCC(N)=O)NC(=O)[C@H](CC(N)=O)NC1=O is ___
Reply text: 0.037

Inquiry: Please give the measured Activity for this compound: NC(=O)CC[C@@H]1NC(=O)[C@H](Cc2ccccc2)NC(=O)[C@H](Cc2ccc(O)cc2)NC(=O)[C@@H](N)CSSC[C@@H](C(=O)N2CCC[C@H]2C(=O)N[C@@H](CCCN=C(N)N)C(=O)NCC(N)=O)NC(=O)[C@H](CC(N)=O)NC1=O [VASOPRESSIN]
Reply text: 382

* * *

protocolDetails: Oxytocic activity in rat uterus in absence of Mg2+
Format: functional
Record form. Attribute: Activity. Fill in for each entry.
Answer format: numeric, U/mg implied, no suffix.

Inquiry: Look at this compound and give its reported Activity. NC(=O)CC[C@@H]1NC(=O)[C@H](Cc2ccccc2)NC(=O)[C@H](Cc2ccc(O)cc2)NC(=O)[C@@H](O)CSSC[C@@H](C(=O)N2CCC[C@H]2C(=O)N[C@@H](CCCN=C(N)N)C(=O)NCC(N)=O)NC(=O)[C@H](CC(N)=O)NC1=O
Reply text: 31

Inquiry: Looking for the measured Activity of CC(C)[C@@H]1NC(=O)[C@H](Cc2ccccc2)NC(=O)[C@H](Cc2ccc(O)cc2)NC(=O)[C@@H](N)CSSC[C@@H](C(=O)N2CCC[C@H]2C(=O)N[C@H](CCCN=C(N)N)C(=O)NCC(N)=O)NC(=O)[C@H](CC(N)=O)NC1=O , can you help?
Reply text: 0.6

Inquiry: Tell me the measured Activity of NC(=O)CC[C@@H]1NC(=O)[C@H](Cc2ccccc2)NC(=O)[C@H](Cc2ccc(O)cc2)NC(=O)[C@@H](O)CSSC[C@@H](C(=O)N2CCC[C@H]2C(=O)N[C@H](CCCN=C(N)N)C(=O)NCC(N)=O)NC(=O)[C@H](CC(N)=O)NC1=O , please.
Reply text: 4.3

Inquiry: Given the compound NC(=O)CC[C@@H]1NC(=O)[C@H](Cc2ccccc2)NC(=O)[C@H](Cc2ccc(O)cc2)NC(=O)[C@@H](N)CSSC[C@@H](C(=O)N2CCC[C@H]2C(=O)N[C@@H](CCCN=C(N)N)C(=O)NCC(N)=O)NC(=O)[C@H](CC(N)=O)NC1=O [VASOPRESSIN] , what is its reported Activity?
Reply text: 16
